# melting point values compiled below
measurement kind: melting point

>  <compound>
CCCc1c(Cl)c(=O)oc2c3c(c4c(c12)OCC(C)C4OCC)OC(C)CC3=O (stereo not shown) [Example 96]

>  <measurement kind>
melting point

>  <value>
187 to 189 °C

$$$$
>  <compound>
CCCc1c(F)c(=O)oc2c3c(c4c(c12)OC(c1ccccc1)C=C4)OC(C)CC3=O (stereo not shown) [Example 43]

>  <measurement kind>
melting point

>  <value>
128 to 129 °C

$$$$
>  <compound>
CCCc1cc(=O)oc2c3c(c4c(c12)OC(CC)C=C4)OC(C)CC3=O (stereo not shown) [Example 52]

>  <measurement kind>
melting point

>  <value>
139 to 141 °C

$$$$
>  <compound>
CCCCc1cc(=O)oc2c3c(c4c(c12)OC(CCC)C=C4)OC(C)CC3=O (stereo not shown) [Example 37]

>  <measurement kind>
melting point

>  <value>
135 to 138 °C

$$$$
